The reported measurements were obtained from ChEMBL document CHEMBL1131138.

Target: B2 bradykinin receptor (Cavia porcellus)
Test: Concentration required to inhibit specific binding of [ 3H]BK (0.06 nM) to Bradykinin receptor B2 in guinea pig ileum membrane preparations by 50%.
Metric name: pIC50
As a rule, pIC50 stands for the negative log10 of the concentration, concentration in M.

>  <Smi>
CNC(=O)c1ccc(/C=C/C(=O)NCC(=O)N(C)c2ccc(Cl)c(COc3cccc4ncc(C)nc34)c2Cl)cc1

>  <pIC50>
9.00

$$$$

INPUT: Entry "Cc1ccc2cccc(OCc3c(Cl)ccc(N(C)C(=O)CNC(=O)/C=C/c4ccc(N5CCCC5=O)cc4)c3Cl)c2n1" : reported pIC50 = ?
OUTPUT: 9.26

INPUT: Quick one: "CNC(=O)c1ccc(/C=C/C(=O)NCC(=O)N(C)c2ccc(Cl)c(COc3cccc4c3nc(-c3ccccc3)n4C)c2Cl)cc1"
OUTPUT: 6.29

INPUT: Now give it for "CNC(=O)c1ccc(/C=C/C(=O)NCC(=O)N(C)c2ccc(Cl)c(COc3cccc4nc(C)cnc34)c2Cl)cc1" too.
OUTPUT: 6.77

INPUT: Also "Cc1ccc2cccc(OCc3c(Cl)ccc(N(C)C(=O)CNC(=O)/C=C/c4ccc(/C=C/c5ccncc5)nc4)c3Cl)c2n1" , if possible.
OUTPUT: 9.12

INPUT: What about this molecule? "CC(=O)Nc1ccc(/C=C/C(=O)NCC(=O)N(C)c2ccc(Cl)c(COc3cccc4ccc(C)nc34)c2Cl)cc1"
OUTPUT: 9.30

INPUT: And what about the molecule "CNC(=O)c1ccc(/C=C/C(=O)NCC(=O)N(C)c2ccc(Cl)c(COc3cccc4c(C)c(C)oc34)c2Cl)cc1" ?
OUTPUT: 7.64

====

Attribute: IC50
Target: B2 bradykinin receptor (Cavia porcellus, UniProt O70526)
Sequence (O70526 whole entry): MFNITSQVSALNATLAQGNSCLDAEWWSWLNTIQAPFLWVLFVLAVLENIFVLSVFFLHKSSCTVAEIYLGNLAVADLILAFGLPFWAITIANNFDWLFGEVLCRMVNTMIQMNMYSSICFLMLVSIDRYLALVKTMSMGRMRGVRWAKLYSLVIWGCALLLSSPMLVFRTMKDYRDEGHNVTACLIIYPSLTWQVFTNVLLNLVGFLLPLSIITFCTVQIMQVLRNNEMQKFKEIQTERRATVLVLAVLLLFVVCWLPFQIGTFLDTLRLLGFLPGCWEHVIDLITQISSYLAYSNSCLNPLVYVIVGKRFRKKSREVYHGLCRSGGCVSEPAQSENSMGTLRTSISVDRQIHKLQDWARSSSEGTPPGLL
Assay: Concentration required to inhibit specific binding of [ 3H]BK (0.06 nM) to Bradykinin receptor B2 in guinea pig ileum membrane preparations by 50%.
Field: numeric (nM). Do not append units.

INPUT: Item "CNC(=O)c1ccc(/C=C/C(=O)NCC(=O)N(C)c2ccc(Cl)c(COc3cccc4ccc(C)nc34)c2Cl)cc1" with B2 bradykinin receptor (Cavia porcellus, UniProt O70526) - IC50?
OUTPUT: 0.51

INPUT: Do the same for "Cc1ccc2cccc(OCc3c(Cl)ccc(N(C)C(=O)CNC(=O)/C=C/c4ccc(C(=O)Nc5ccncc5)nc4)c3Cl)c2n1" please
OUTPUT: 15

====

Target: B2 bradykinin receptor (Homo sapiens, UniProt P30411)
Sequence (P30411 whole entry): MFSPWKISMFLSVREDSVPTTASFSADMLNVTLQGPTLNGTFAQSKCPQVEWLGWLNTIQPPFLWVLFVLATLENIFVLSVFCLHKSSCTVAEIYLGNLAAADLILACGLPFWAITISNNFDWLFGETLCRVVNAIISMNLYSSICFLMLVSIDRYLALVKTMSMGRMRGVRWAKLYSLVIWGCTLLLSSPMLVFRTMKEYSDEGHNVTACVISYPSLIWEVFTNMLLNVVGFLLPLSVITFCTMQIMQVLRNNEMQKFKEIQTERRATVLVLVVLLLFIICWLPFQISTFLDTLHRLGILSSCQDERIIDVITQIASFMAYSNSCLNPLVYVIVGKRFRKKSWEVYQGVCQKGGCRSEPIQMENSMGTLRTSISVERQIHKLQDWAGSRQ
Test: Concentration required to inhibit specific binding of [3H]BK (1.2 nM) to A-431 cells (human epidermoid carcinoma) which express Bradykinin receptor B2 by 50%.
Type: cell-based
pIC50: −log10 of the molar value.
Please use YES whenever pIC50 is not below 6, and NO whenever it is.

>  <Smi>
CNC(=O)c1ccc(/C=C/C(=O)NCC(=O)N(C)c2ccc(Cl)c(COc3cccc4cnc(C)cc34)c2Cl)cc1

>  <Class>
NO

$$$$
>  <Smi>
CNC(=O)c1ccc(/C=C/C(=O)NCC(=O)N(C)c2ccc(Cl)c(COc3cccc4ncc(C)nc34)c2Cl)cc1

>  <Class>
YES

$$$$
>  <Smi>
CNC(=O)c1ccc(/C=C/C(=O)NCC(=O)N(C)c2ccc(Cl)c(COc3ccc4ccc(C)nc4c3)c2Cl)cc1

>  <Class>
NO

$$$$

INPUT: Identify whether the reported pIC50 of the following compound is 6 or greater: "CNC(=O)c1ccc(/C=C/C(=O)NCC(=O)N(C)c2ccc(Cl)c(COc3cccc4nc(C)cnc34)c2Cl)cc1"
OUTPUT: NO

INPUT: Next entry: "CNC(=O)c1ccc(/C=C/C(=O)NCC(=O)N(C)c2ccc(Cl)c(COc3cccc4ccc(C)nc34)c2Cl)cc1"
OUTPUT: YES

INPUT: Now the compound "CNC(=O)c1ccc(/C=C/C(=O)NCC(=O)N(C)c2ccc(Cl)c(COCc3cccc(C)n3)c2Cl)cc1"
OUTPUT: NO

INPUT: Check "CNC(=O)c1ccc(/C=C/C(=O)NCC(=O)N(C)c2ccc(Cl)c(COc3cccc4cnc(C)nc34)c2Cl)cc1" too.
OUTPUT: YES

INPUT: Cool, now "CNC(=O)c1ccc(/C=C/C(=O)NCC(=O)N(C)c2ccc(Cl)c(COc3cccnc3-n3c(C)ccc3C)c2Cl)cc1"
OUTPUT: NO

INPUT: Follow-up item: "Cc1ccc2cccc(OCc3c(Cl)ccc(N(C)C(=O)CNC(=O)/C=C/c4cccc(C(=O)N(C)C)c4)c3Cl)c2n1"
OUTPUT: YES

INPUT: For "CNC(=O)c1ccc(/C=C/C(=O)NCC(=O)N(C)c2ccc(Cl)c(COc3cccc4c3nc(C)n4C)c2Cl)cc1" then?
OUTPUT: YES
